- Tested on: SK-OV-3
- test: NCI tumour cell line growth inhibition, 48 h
Calls of active or inactive are those of the source. Cut-off read from the data, not from the text of the source: active = GI50 up to about 1.1 µM and inactive = higher.
I would appreciate it if you answered using one of these outcomes: active, inactive

# example entries with known answers
compound=CCC/N=C1\S/C(=C/c2ccc(OC)c(OC)c2)C(=O)N1c1ccccc1 class_name=inactive
compound=O=C(O)CN1CCNCCNCC1 class_name=inactive
compound=O=C1N(c2ccccc2)C(=S)/C(=C/c2ccc(Cl)cc2)N1c1ccc(Cl)cc1 class_name=inactive
compound=C=CCOC(=O)N1c2ccc(O)cc2[C@@]23O[C@@]24[C@@H]1C#C/C=C\C#C[C@]3(O)C(OC)(OC)C[C@@H]4C class_name=inactive
compound="C=C1C(=O)O[C@H]2C[C@@H]1C(=O)CC(C)CCCC(C)=CCC[C@@]2(C)O (some centres not stated)" class_name=inactive

Next:
q: Please let me know the test result on file for CCn1c2c(c3c(C(=O)OC)c(O)ccc31)C(=O)c1ccccc1C2=O .
a: inactive

====

// GI50 lookup, one value per entry
- Tested on: SNB-19
- test: NCI tumour cell line growth inhibition, 48 h
Calls of active or inactive are those of the source. Cut-off read from the data, not from the text of the source: active = GI50 up to about 1.1 µM and inactive = higher.

For orientation, consider the following solved cases.
compound=COc1ccc([Se]c2ccc(OC)cc2OC)c(OC)c1 observed_property=GI50 endpoint_value="86.7 µM (inactive)"
compound=NS(=O)(=O)c1nnc(NS(=O)(=O)c2ccc(F)cc2)s1 observed_property=GI50 endpoint_value="> 100 µM (inactive)"
compound=O=C1/C(=C/Cc2ccco2)N=C(c2ccccc2)N1c1nc2c(Cl)cc(Cl)cc2s1 observed_property=GI50 endpoint_value="34.3 µM (inactive)"
compound=O=c1[nH]nc(Cc2ccccc2)n1C1CC1 observed_property=GI50 endpoint_value="> 100 µM (inactive)"

q: Given the compound Cc1c(Cl)ccc2c1NC(=O)C2(O)CC(=O)c1cccc2ccccc12 (stereo not drawn) , what is its reported GI50?
a: 90.8 µM (inactive)

q: Please give the measured GI50 for this compound: O=C(O)Cc1cc(O)c(CC(=O)O)cc1O
a: > 100 µM (inactive)

q: Dear colleague, I am looking for the recorded GI50 of the following compound: O=C(/C=C/c1ccccc1)c1cc(CN2CCOCC2)c(O)c(CN2CCOCC2)c1
a: 94 µM (inactive)

q: Give the measured GI50 of COc1c(Br)cc2c(c1OC)C(Br)CCC(Br)(Br)C2=O (stereo not drawn) .
a: 4.36 µM (inactive)

q: If you can, please state the reported GI50 value of Cc1noc(C)c1-n1nc2ccc3nonc3c2n1 .
a: 32.3 µM (inactive)

q: Report GI50 for CCCCCCCCCCCCCCCCCC(=O)Nc1ccn(C2OC(CO)C(O)C2O)c(=O)n1 (stereo not drawn) please.
a: 19.4 µM (inactive)

q: Given the entry CC(C)/C(Cl)=N\OC(=O)Nc1ccc(F)cc1F , report its measured GI50.
a: 19.5 µM (inactive)

q: Please look up its GI50: C[C@@H]1OC2(O)[C@H]3CCCN3S(=O)(=O)CCN2C1=O (stereo partly drawn)
a: > 100 µM (inactive)

q: Reported GI50 for C[C@@H](c1ccccc1)C(CC#N)[C@H]1CCC[C@]1(O)C#Cc1ccc2c(c1)OCO2 (stereo partly drawn) : what is it?
a: 16.1 µM (inactive)

q: # GI50 lookup, item C1=C2/CC[C@H](Sc3ccccc3)C2C2(CCCCC/1)OCCO2 (stereo partly drawn)
a: > 100 µM (inactive)

q: Fill in the blank: the reported GI50 of c1cc(CSc2ncnc3[nH]cnc23)ccn1 is ____.
a: > 100 µM (inactive)

====

- Tested on: SK-MEL-28
- test: NCI tumour cell line growth inhibition, 48 h
Active and inactive are the calls of the source. Cut-off read from the data, not from the text of the source: active = GI50 up to about 1.1 µM and inactive = higher.
observed property: GI50

// solved cases for GI50 follow
compound=Clc1ccc(-c2nnc(C34CC5CC(CC(C5)C3)C4)o2)cc1 tested_system=SK-MEL-28 endpoint_value="> 100 µM (inactive)"
compound=Cc1c(S(=O)(=O)c2ccccc2)c(N)n(Cc2ccccc2)c1C tested_system=SK-MEL-28 endpoint_value="> 100 µM (inactive)"
compound="CC1(C)OC2CC(=O)OCC23C1CC(=O)C1(C)C3CCC2(C)C(c3ccoc3)OC(=O)C3OC321 (centres undefined)" tested_system=SK-MEL-28 endpoint_value="> 125 µM (inactive)"
compound="C1=C2/CC[C@H](Sc3ccccc3)C2C2(CCCCC/1)OCCO2 (some centres undefined)" tested_system=SK-MEL-28 endpoint_value="30.2 µM (inactive)"

q: Give the measured GI50 of CCCCCCCCCCCCCCCCCC(=O)Nc1ccn(C2OC(CO)C(O)C2O)c(=O)n1 (centres undefined) .
a: 31.9 µM (inactive)

q: Record request: GI50 value, item COc1cccc(/C=C(\NC(C)=O)c2nc3cc(Cl)ccc3[nH]2)c1
a: > 100 µM (inactive)

q: Name the recorded GI50 for Cc1ccsc1/C=N/Nc1nc2ccccc2s1 .
a: 25.1 µM (inactive)

q: I would be grateful if you could share the reported GI50 for COc1cc([C@@H]2c3cc4c(c(O)c3C[C@H]3COC(=O)[C@@H]32)OCO4)cc(OC)c1OC .
a: 4.18 µM (inactive)

q: # input compound: CC(C)(C)[Si](C)(C)OCC1OC(n2cnc3c(N)ncnc32)CC1O (centres undefined) ; wanted: its GI50
a: > 100 µM (inactive)

====

- Test system: OVCAR-5
- test: NCI tumour cell line growth inhibition, 48 h
Activity calls are given as the source filed them. Cut-off read from the data, not from the text of the source: active = GI50 up to about 1.1 µM and inactive = higher.
Your reply should match one of these outcome classes. class 1 (active), class 0 (inactive)

Would you please look over these solved cases?
compound=Nc1ccn([C@H]2CO[C@@H](CO)[C@@H]2O)c(=O)n1 tested_system=OVCAR-5 class_name="class 0"
compound=C[n+]1c(-c2ccc(/C=N/Nc3n[nH]c(=S)n3N/N=C/c3ccc(-c4cn5ccccc5[n+]4C)cc3)cc2)cn2ccccc21 tested_system=OVCAR-5 class_name="class 0"
compound="CC/C=N\\N1C(N)=C(C#N)C(C#N)(C#N)C1CC (stereo not given)" tested_system=OVCAR-5 class_name="class 0"
compound="CC1=C(N2CC2)C(=O)c2nc3n(c2C1=O)CCC3O (stereo not given)" tested_system=OVCAR-5 class_name="class 1"

q: Called result for COc1cc(C2c3cc4c(cc3OC(NN)C2C)OCO4)cc(OC)c1O (stereo not given)
a: class 0

====

- Tested on: PC-3
- test: NCI tumour cell line growth inhibition, 48 h
Activity calls are given as the source filed them. Rule as the data show it: active = GI50 up to about 1.1 µM and inactive = higher.
observed property: GI50

molecule=CNC(=S)N(C1CCCCC1)C1CCCCC1 observed_property=GI50 endpoint_value="35.1 µM (inactive)"
molecule=CC1=NN(C2=NS(=O)(=O)c3ccccc3N2C)C(=O)C1 observed_property=GI50 endpoint_value="> 100 µM (inactive)"
molecule="c1ccc(/N=C2\\SC(c3ccccc3)CN2C23CC4CC(CC(C4)C2)C3)cc1 (stereo unspecified)" observed_property=GI50 endpoint_value="> 100 µM (inactive)"
molecule=COC(=O)n1c(=O)n(-c2ccccc2)c(=O)n1C(=O)Nc1ccccc1 observed_property=GI50 endpoint_value="> 100 µM (inactive)"
molecule="NC(Cc1ccc(OCc2ccccc2)cc1)C(=O)NC(Cc1ccccc1)C(=O)Oc1c(Cl)c(Cl)c(Cl)c(Cl)c1Cl (stereo unspecified)" observed_property=GI50 endpoint_value="17.7 µM (inactive)"

q: Sample COC1(OC)N=C(N)C2(C#N)/C(=N/N(C)C)CC(C)C12C#N (stereo unspecified) — what was its GI50?
a: > 100 µM (inactive)

q: Dear colleague, I am looking for the recorded GI50 of the following molecule: COC(=O)C1=CSC2(S1)C(C(=O)OC)=CSc1c2ss/c1=N\c1ccccc1 (stereo unspecified)
a: 5.08 µM (inactive)

q: I'd like to know its GI50. The molecule in question is O=C(O)Cc1cc(O)c(CC(=O)O)cc1O
a: > 100 µM (inactive)

q: Dear colleague, I am looking for the recorded GI50 of the following molecule: C/C(=N\Nc1nc2ccccc2[nH]1)c1cnccn1
a: 3.92 µM (inactive)

q: Which measured GI50 value corresponds to CCOC(=O)C(CS)NC(=O)CCCCCCCC(=O)NC(CS)C(=O)OCC (stereo unspecified) ?
a: > 100 µM (inactive)

q: Requested read-out: GI50. Entry: CC(=O)C12C[C@](C#N)(N3CCCCCC3)C1C=Cc1ccccc12 (stereo partly specified)
a: > 100 µM (inactive)

====

- Test system: MCF7
- test: NCI tumour cell line growth inhibition, 48 h
Activity calls are given as the source filed them. No stated cut-off is given here; in the data, active = GI50 up to about 1.1 µM and inactive = higher.
Choose the fitting class; nothing outside active, inactive is accepted.

Observe how each entry below is paired with its result.
compound=S=C1N=C(Cl)/C(=C\c2ccccc2)N1 class_name=inactive
compound=CN(C)CCCNc1cc(O)c2c(c1O)C(=O)c1ccccc1C2=O class_name=inactive
compound="CN1C(c2ccccc2)CC(=NOCc2ccccc2)CC1c1ccccc1 (configuration not stated)" class_name=inactive
compound=O=c1c2c(c1=O)C1(SCCCS1)c1cc(Cl)ccc1O2 class_name=inactive
compound=CC(C)CCNC(=O)c1ccc(CNC(=O)/C=C/c2cccc(Oc3ccccc3)c2)cc1 class_name=inactive

Next item in the queue.
q: Write down the call the test reported for this compound. Item: Cc1ccc(S(=O)(=O)n2c3c(c4ccccc42)CCN2C(=O)C(S(=O)(=O)c4ccccc4)=CCC32)cc1 (configuration not stated)
a: active
